- study.target: Kappa-type opioid receptor (Homo sapiens)
- assay.remarks: OPRK1 antagonists, late-stage follow-up, cell-based, fluorescence, dose response (AID 652032)
- measurement.parameters: OPRK1-expressing cells, fluorescence antagonist read-out
measurement.label: IC50

compound	measurement.label	recorded.measurement
COC(=O)c1cc(Br)cnc1N1CCC(NC2CCCCC2)C1 (stereo not given)	IC50	185 nM
COC(=O)c1cc(Br)cnc1N1CCC(CNC2CCCCC2)CC1	IC50	3500 nM
COC(=O)c1cc(Br)cnc1N1CCC(NC2CCCC2)CC1	IC50	120 nM
CC(C)OC(=O)c1cc(Br)cnc1N1CCC(NC2CCCCC2)CC1	IC50	398 nM
COC(=O)c1cc(Br)cnc1N1CCC(NC2CCOCC2)CC1	IC50	621 nM
